measuredTarget: T1, recombinant human CLEC-1 protein with His Tag (#1704-CL R&D Systems) (human, UniProt Q8NC01 74-280)
T1 construct: Bought protein; also called His-CLEC1; His Clec-1; not shown: His tag
T1 sequence: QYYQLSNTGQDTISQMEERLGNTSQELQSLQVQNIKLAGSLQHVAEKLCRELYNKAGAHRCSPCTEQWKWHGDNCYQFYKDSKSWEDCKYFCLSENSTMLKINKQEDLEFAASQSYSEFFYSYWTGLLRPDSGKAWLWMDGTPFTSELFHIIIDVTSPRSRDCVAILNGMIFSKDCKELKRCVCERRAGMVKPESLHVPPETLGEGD
test: Blitz biolayer interferometry, His-CLEC1 on Ni-NTA biosensor, antibody at 20 ug/mL

[
  {
    "binder": "chimeric anti-CLEC-1A antibody 15E3 (antibody, human IgG4 S228P, kappa, V domains shown, also called 15E3chim; 15E3-VHwt-FcG4m / 15E3-VLwt-CLhk) VH: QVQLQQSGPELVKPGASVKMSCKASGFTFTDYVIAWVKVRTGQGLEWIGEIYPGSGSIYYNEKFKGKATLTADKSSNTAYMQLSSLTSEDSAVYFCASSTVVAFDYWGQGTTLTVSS VL: EIVLTQSPTTLAASPGEKIIITCSDSSSISSNYLHWYQQKPGFSPKLLIYGTSNLASGVPARFSGSGSGTTYSLTIGTMEAEDVATYYCQQGSSIPRTFGGGTKLEIKR",
    "koff, s⁻¹": 0.00169
  },
  {
    "binder": "chimeric anti-CLEC-1A antibody 11H11 (antibody, human IgG4 S228P, kappa, V domains shown, also called 11H11chim; 11H11-VHwt-FcG4m / 11H11-VLwt-CLhk) VH: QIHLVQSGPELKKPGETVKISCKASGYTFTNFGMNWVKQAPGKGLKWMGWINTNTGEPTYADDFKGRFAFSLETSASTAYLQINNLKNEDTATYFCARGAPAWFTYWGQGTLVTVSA VL: DIQMTQSPASLSASVGETVTITCRATENIYSYLAWYQQKQGKSPQFLVYNAKTLAEGMPSRFSGSGSGTQFSLKINILQPEDFGTYYCQHHFGTPLTFGAGTKLELKR",
    "koff, s⁻¹": 0.00019
  },
  {
    "binder": "chimeric anti-CLEC-1A antibody 5D1 (antibody, human IgG4 S228P, kappa, V domains shown, also called 5D1chim; 5D1-VHwt-FcG4m / 5D1-VLwt-CLhk) VH: QVQLKESGPGLVAPSQSLSITCTISGFSLTSYGVHWVRQPPGKGLEWLVVIWSDGSTIYNSALKSRLSISKDNSKSQVFLKMNSLQTDDTAMYYCARHGGYYNYFDYWGQGTTLTVSS VL: DIQMNQSPSSLSASLGDTITITCHASQNINVWLSWYQQKPGNIPKLLIYKASNLHTGVPSRFSGSGSGTGFTLTISSLQPEDIATYYCQQGQSYWTFGGGTKLEIKR",
    "koff, s⁻¹": 0.0012
  }
]
